Parameter MIC, tested on A. terreus 49, listed per item.

A selection of reference data follows.
STRUCTURE_STRING: [2H]C1([2H])N(c2ccc(NC(=O)C(=O)c3c(-c4ccccc4)cc(C)n3C)cc2)C([2H])([2H])C([2H])([2H])N(c2ncc(F)cn2)C1([2H])[2H]
MIC: 0.04 to 0.06 µg/mL

STRUCTURE_STRING: Cc1cc(-c2ccccc2)c(C(=O)C(=O)Nc2ccc(N3CCN(c4ccccn4)CC3)cc2)n1C
MIC: 0.04 to 0.06 µg/mL

Now for the molecule whose MIC we want.
Fill in: A. terreus 49 MIC for Cc1cc(C)nc(N2CCN(c3ccc(NC(=O)C(=O)c4c(-c5ccccc5)cc(C)n4C)cc3)CC2)c1 = 0.02 to 0.04 µg/mL

====

Parameter MIC, tested on A. terreus 49, listed per item.

A selection of reference data follows.
STRUCTURE_STRING: Cc1cccc(N2CCN(c3ccc(NC(=O)C(=O)c4c(-c5ccccc5)cc(C)n4C)cc3)CC2)n1
ENDPOINT_RESULT: 0.04 to 0.06 mg/L
//
STRUCTURE_STRING: Cc1cc(C)nc(N2CCN(c3ccc(NC(=O)C(=O)c4c(-c5ccccc5)cc(C)n4C)cc3O)CC2)c1
ENDPOINT_RESULT: > 0.06 mg/L
//
STRUCTURE_STRING: Cc1cc(-c2ccccc2)c(C(=O)C(=O)Nc2ccc(N3CCN(c4ccccn4)CC3)cc2F)n1C
ENDPOINT_RESULT: 0.04 to 0.06 mg/L

Fill in: A. terreus 49 MIC for [2H]c1c([2H])c(N2CCN(c3ncc(F)cn3)CC2)c([2H])c([2H])c1NC(=O)C(=O)c1c(-c2ccccc2)cc(C)n1C = 0.04 to 0.06 mg/L

Fill in: A. terreus 49 MIC for Cc1ccnc(N2CCN(c3ccc(NC(=O)C(=O)c4c(-c5ccccc5)cc(C)n4C)cc3)CC2)c1 = 0.04 to 0.06 mg/L

Fill in: A. terreus 49 MIC for Cc1cc(-c2ccccc2)c(C(=O)C(=O)Nc2ccc(N3CCN(c4ncc(F)cn4)CC3)cc2)n1C = ≤ 0.005 mg/L

====

Measured MIC of individual entries
- Tested on: A. terreus

STRUCTURE_STRING: Cc1cc(C)nc(N2CCN(c3ccc(NC(=O)C(=O)c4c(-c5ccccc5)cc(C)n4C)cc3O)CC2)c1
MIC: > 0.06 µg/mL
//
STRUCTURE_STRING: Cc1cccc(N2CCN(c3ccc(NC(=O)C(=O)c4c(-c5ccccc5)cc(C)n4C)cc3)CC2)n1
MIC: 0.04 to 0.06 µg/mL
//
STRUCTURE_STRING: Cc1cc(-c2ccccc2)c(C(=O)C(=O)Nc2ccc(N3CCN(c4ccccn4)CC3)c(F)c2)n1C
MIC: 0.04 to 0.06 µg/mL

Fill in: A. terreus MIC for Cc1cc(C)nc(N2CCN(c3ccc(NC(=O)C(=O)c4c(-c5ccccc5)cc(C)n4C)cc3)CC2)c1 = 0.02 to 0.04 µg/mL

Fill in: A. terreus MIC for Cc1cc(C)nc(N2CCN(c3ccc(NC(=O)C(=O)c4c(-c5ccccc5)cc(C)n4C)cc3C)CC2)c1 = 0.04 to 0.06 µg/mL

Fill in: A. terreus MIC for Cc1cc(-c2ccccc2)c(C(=O)C(=O)Nc2ccc(N3CCN(c4ccccn4)CC3)cc2)n1C = 0.04 to 0.06 µg/mL

Data provenance is patent US10596150B2.
